# Measurement target: T1, NHERF1 PDZ2 domain (133-300) (human, UniProt O14745 133-300)
# T1 sequence (looked up): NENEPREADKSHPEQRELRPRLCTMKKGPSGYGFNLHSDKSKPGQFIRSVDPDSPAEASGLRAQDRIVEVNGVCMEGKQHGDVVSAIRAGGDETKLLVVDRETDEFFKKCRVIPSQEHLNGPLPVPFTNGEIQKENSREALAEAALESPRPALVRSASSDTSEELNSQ
# Assay info: ITC
Test readout: Kd (µM)

>>> df
                                  binder  test_readout  value_observed
0  QEEWETVM [wild-type PTHRct-8 peptide]            Kd             9.7

Values were extracted from paper PMC5479578.
